Each entry below lists one item and its recorded MIC value.
tested on: Escherichia coli; test: microbe, parasite or virus in culture; conditions: ATCC 25922
Please state the figure in µg/mL; there is no need to write the unit.

// below: answered molecules
Compound String	Tested System	MIC (µg/mL)
C[C@@](CCN1Cc2cc(C#CC#CC3(F)CNC3)cn2C1=O)(C(=O)NO)S(C)(=O)=O	Escherichia coli	1
CC(C)(O)CN1CC(C#CC#Cc2cc3n(c2)C(=O)N(CC[C@](C)(C(=O)NO)S(C)(=O)=O)C3)C1	Escherichia coli	0.5
CC(=O)N1CC(C#CC#Cc2cc3n(c2)C(=O)N(CC[C@](C)(C(=O)NO)S(C)(=O)=O)C3)C1	Escherichia coli	1
C[C@@](CCN1Cc2cc(C#CC#C[C@@H]3C[C@@]3(F)CO)cn2C1=O)(C(=O)NO)S(C)(=O)=O	Escherichia coli	0.25
CCN1CC(C#CC#Cc2cc3n(c2)C(=O)N(CC[C@](C)(C(=O)NO)S(C)(=O)=O)C3)C1	Escherichia coli	0.25

-- ask State, in one line, measured MIC of CNC1(C#CC#Cc2cc3n(c2)C(=O)N(CC[C@](C)(C(=O)NO)S(C)(=O)=O)C3)CC1
-- reply 0.12

-- ask Supply recorded MIC for C[C@@](CCN1Cc2cc(C#CC#C[C@H]3C[C@@H]3[C@@H](O)CO)cn2C1=O)(C(=O)NO)S(C)(=O)=O here.
-- reply 0.5

-- ask Report measured MIC; entry is C[C@]1(CO)C[C@@H]1C#CC#Cc1cc2n(c1)C(=O)N(CC[C@](C)(C(=O)NO)S(C)(=O)=O)C2
-- reply 0.25

-- ask Identify measured MIC corresponding to C[C@@](CCN1Cc2cc(C#CC#CC3CCN(C4COC4)CC3)cn2C1=O)(C(=O)NO)S(C)(=O)=O
-- reply 0.5

-- ask Tell me measured MIC for C[C@@](CCN1Cc2cc(C#CC#C[C@@H]3C[C@H]3CO)cn2C1=O)(C(=O)NO)S(C)(=O)=O please.
-- reply 0.12

-- ask Output measured MIC for this item: C[C@@](CCN1Cc2cc(C#CC#CC3(N)CC3)cn2C1=O)(C(=O)NO)S(C)(=O)=O
-- reply 0.25

Reference source: ChEMBL document CHEMBL4321867
